Consider the following IC50 data for Cyclin-dependent kinase 4 (Homo sapiens, UniProt P11802), collected from several reports.
ASSAY READOUT: IC50 (nM)

a: CC(C)N1CCOc2c(F)cc(-c3nc(Nc4ccc(CN5CCC(N(C)C)CC5)c(F)c4)ncc3F)cc21
b: Cc1nc2c(F)cc(-c3nc(Nc4cc(Cl)c(Sc5cnc(N6CCC7(CC6)CO[C@@H](C)[C@H]7N)cn5)cn4)ncc3F)cc2n1C(C)C
[ask] Hi there, can you help? I need to know whether a or b has lower measured IC50. // output: label of the selected item
[reply] a

I: CCN1CCC(COc2ccc(Nc3ncc(F)c(-c4cc(F)c5c(c4)N(C(C)C)CCO5)n3)nc2)CC1
II: CCn1nc2c(c1C(C)C)-c1nc(Nc3ccc(N4CCNCC4)cn3)ncc1CC2(C)C
[ask] Compare the recorded IC50 of I and II ; state which is larger. // output: label of the selected item
[reply] II
(II: 8 nM, I: 5 nM)

---

Consider the following IC50 data for UniProt:P11802, collected from several reports.
ASSAY READOUT: IC50 (nM)

Guide cases for IC50, answers given:
MOLECULE: CC(C)N1CCOc2c(F)cc(-c3nc(Nc4ccc(C5CCN(C)CC5)nn4)ncc3F)cc21
UNIT INFO: nM
IC50: 1.5
//
MOLECULE: CC(C)c1c2c(nn1C)C(C)c1cnc(Nc3ccc(N4CCNCC4)cn3)nc1-2 (stereo not drawn)
UNIT INFO: nM
IC50: 5
//
MOLECULE: CN(C)C(=O)c1sc2cnc(Nc3ccc(N4CCNCC4)cn3)cc2c1C1CCOC1 (stereo not drawn)
UNIT INFO: nM
IC50: 34
//
MOLECULE: CC(C)N1CCOc2c(F)cc(-c3nc(Nc4ccc(C5CCN(C)CC5)c(F)n4)ncc3F)cc21
UNIT INFO: nM
IC50: 3
//
MOLECULE: COCCNS(=O)(=O)c1ccc(Nc2ncc(F)c(-c3cc(F)c4c(c3)N(C(C)C)CCO4)n2)cc1
UNIT INFO: nM
IC50: 20

A: CCN1CCC(COc2ccc(Nc3cc(-c4cc(F)c5c(c4)N(C(C)C)CCO5)c(F)cn3)nc2)CC1
B: CCN1CCN(Cc2ccc(Nc3ncc4c(n3)-c3c(nn(CC)c3C(C)C)C4)nc2)CC1
[ask] Hi there, can you help? I need to know whether A or B has lower measured IC50. // output: label of the selected item
[reply] A

---

Consider the following IC50 data for Cyclin-dependent kinase 4 (Homo sapiens, UniProt P11802), collected from several reports.

Guide cases for IC50, answers given:
MOLECULE: CCC(CC)n1c(CNC(C)C)cc2cnc(Nc3ccc(N4CCN(C(C)=O)CC4)cc3)nc21
IC50: < 10 µM

MOLECULE: CCN1CCN(Cc2ccc(Nc3ncc(F)c(-c4ccc5nnc(C(C)=O)n5c4)n3)nc2)CC1
IC50: 0.02 to 0.1 µM

[ask] Retrieve IC50 measured for CC(C)n1ncc2c1-c1nc(Nc3ccc(N4CCNCC4)cn3)ncc1CC2 and print it.
[reply] 0.009 µM

[ask] Retrieve IC50 measured for OCCCNc1cncc(-c2cncc(Nc3cccc(Cl)c3)n2)c1 and print it.
[reply] ~10 µM

[ask] Retrieve IC50 measured for COc1cccc(-c2cnc(Nc3ccc(N4CCN(C)CC4)c(F)c3)o2)c1 and print it.
[reply] < 0.1 µM

[ask] Retrieve IC50 measured for CC(C)N1CCOc2c(F)cc(-c3nc(Nc4ccc(C5CCN(C(=O)N(C)C)CC5)cn4)ncc3F)cc21 and print it.
[reply] 0.018 µM

[ask] Retrieve IC50 measured for O=C1N(C2CCCC2)c2nc(Nc3ccc(N4CCNCC4)cn3)ncc2OC12CC2 and print it.
[reply] ≤ 0.02 µM

[ask] Retrieve IC50 measured for CCN1CCN(Cc2ccc(Nc3ncc4c(n3)N(C)C(=O)C(C(C)C)O4)nc2)CC1 (centres unmarked) and print it.
[reply] ≤ 0.02 µM

[ask] Retrieve IC50 measured for Cc1cn(C2CCCC2)c2nc(Nc3ccncc3)ncc12 and print it.
[reply] < 10 µM

---

Consider the following pIC50 data for UniProtKB P11802, collected from several reports.
pIC50: −log10 of the molar value.

MOLECULE: Cc1cn(-c2cccnc2)c2nc(Nc3ccc(N4CCNCC4)cc3)ncc12
MEASURED RESULT: > 5.00
//
MOLECULE: CN(C)C(=O)c1sc2cnc(Nc3ccc(N4CCN(C(=O)C(O)CO)CC4)cn3)cc2c1C1CCCC1 (centres unmarked)
MEASURED RESULT: 8.54
//
MOLECULE: CC(=O)N1CCN(c2ccc(Nc3ncc4ccn(C5CCCC(C)C5)c4n3)cc2)CC1 (centres unmarked)
MEASURED RESULT: > 5.00
//
MOLECULE: Cc1cn(C2CCCC2)c2nc(Nc3ccc(N4CCNCC4)c(F)c3)ncc12
MEASURED RESULT: > 5.00

[ask] Enter pIC50 (test system UniProtKB P11802) for CCN1CCN(Cc2ccc(Nc3ncc(F)c(-c4ccc5c(n4)c(C(F)(F)F)nn5C4CCCC4)n3)nc2)CC1
[reply] 7.00 to 7.70

[ask] Enter pIC50 (test system UniProtKB P11802) for CC(C)N1CCOc2c(F)cc(-c3nc(Nc4ccc(C5CCN(C)CC5)c(C5CC5)n4)ncc3F)cc21
[reply] 7.36

[ask] Enter pIC50 (test system UniProtKB P11802) for COc1cccc(-c2cnc(Nc3ccc(CN4CCN(C)CC4)cc3)o2)c1
[reply] > 6.00

[ask] Enter pIC50 (test system UniProtKB P11802) for CCN1CCN(Cc2ccc(Nc3ncc(F)c(-c4ncnc5c4c(C#N)cn5C)n3)nc2)CC1
[reply] ≥ 7.70

---

pIC50: −log10 of the molar value.
Consider the following pIC50 data for Cyclin-dependent kinase 4 (Homo sapiens), collected from several reports.

[ask] Retrieve pIC50 measured for CCN1C(=O)C(C)(CC)Oc2cnc(Nc3ccc(CN4CCN(C)CC4)cn3)nc21 (centres unmarked) and print it.
[reply] ≥ 7.70

[ask] Retrieve pIC50 measured for CCC(CC)n1c(CNc2cc(C)[nH]n2)cc2cnc(Nc3ccc(N4CCN(C(C)=O)CC4)cc3)nc21 and print it.
[reply] > 5.00

[ask] Retrieve pIC50 measured for CC1(C)Oc2cnc(Nc3ccc(N4CCNCC4)cn3)nc2N(C2CCCC2)C1=O and print it.
[reply] ≥ 7.70

[ask] Retrieve pIC50 measured for c1ccc(-c2cnc(Nc3ccc(CN4CCOCC4)cc3)o2)cc1 and print it.
[reply] > 6.00

[ask] Retrieve pIC50 measured for COc1cccc(-c2cnc(Nc3ccccc3)o2)c1 and print it.
[reply] > 6.00

[ask] Retrieve pIC50 measured for CC1(C)Oc2cnc(Nc3ccc(N4CCN(C5CCCC5)CC4)cn3)nc2N(C2CCCC2)C1=O and print it.
[reply] ≥ 7.70

---

pIC50: −log10 of the molar value.
Consider the following pIC50 data for Cyclin-dependent kinase 4 (Homo sapiens), collected from several reports.

Guide cases for pIC50, answers given:
COMPOUND: Oc1cccc(-c2cnc(Nc3ccccc3)o2)c1
ASSAY READOUT: pIC50
MEASURED RESULT: > 6.00
//
COMPOUND: CCN1CCN(Cc2ccc(Nc3ncc4c(n3)N(C3CCCC3)C(=O)C(C(C)=O)O4)nc2)CC1 (stereo not shown)
ASSAY READOUT: pIC50
MEASURED RESULT: ≥ 7.70
//
COMPOUND: O=C1C(C2CC2)Oc2cnc(Nc3ccc(N4CCNCC4)cn3)nc2N1C1CCCC1 (stereo not shown)
ASSAY READOUT: pIC50
MEASURED RESULT: ≥ 7.70

[ask] Enter pIC50 (test system Cyclin-dependent kinase 4 (Homo sapiens)) for CC(=O)N1CCN(c2ccc(Nc3ncc4ccn(C5CCC(C)CC5)c4n3)cc2)CC1 (stereo not shown)
[reply] > 5.00

---

Consider the following IC50 data for UniProt P11802, collected from several reports.

Guide cases for IC50, answers given:
SMILES NOTATION: Cc1cn(C2CCCC2)c2nc(Nc3ccc(S(N)(=O)=O)cc3)ncc12
IC50: < 10000 nM
--
SMILES NOTATION: CN(C)C(=O)c1c2ccc(-c3nc(Nc4ccc(N5CCNCC5)cn4)ncc3F)c(F)c2nn1C
IC50: ≤ 20 nM
--
SMILES NOTATION: CN(C)C(=O)c1cc2cnc(Nc3nccc(Sc4cnc(N5CCC6(CC5)Cc5ccccc5[C@H]6N)cn4)c3Cl)nc2n1C1CCCC1
IC50: > 1000 nM
--
SMILES NOTATION: CN(C)C(=O)c1cc2cnc(Nc3nccc(Sc4cnc(N5CC[C@H](N)c6ccccc6C5)cn4)c3Cl)nc2n1C1CCCC1
IC50: > 1000 nM
--
SMILES NOTATION: CC1(C)Sc2cnc(Nc3ccc(N4CCN(C5CCCCCC5)CC4)cn3)nc2N(C2CCCC2)C1=O
IC50: ≤ 20 nM
--
SMILES NOTATION: Cc1ccc2[nH]ccc2c1-c1ccnc(Nc2cccc(S(C)(=O)=O)c2)n1
IC50: 5000 to 15000 nM

Now consider a different molecule.
[ask] Enter IC50 (test system UniProt P11802) for CC1(C)Oc2cnc(Nc3ccc(N4CCN(C5CCCCC5)CC4)cn3)nc2N(C2CCCC2)C1=O
[reply] ≤ 20 nM
